Test system: Escherichia coli
Test summary: Antibacterial activity against extended-spectrum beta-lactamase deficient Escherichia coli 1515 after 18 hrs by CLSI broth microdilution method
Format: functional
Condition context: Escherichia coli, 1515, 18 h
Value type: MIC

I'd like to know its MIC. The compound in question is CN(C)C(=N)c1ccc2cc(-c3ccc(Oc4ccc(-c5cc6ccc(C(=N)N(C)C)cc6[nH]5)cc4)cc3)[nH]c2c1
4 µg/mL

What about CN(C)C(=N)c1ccc2cc(-c3cnc(-c4cc5ccc(C(=N)N(C)C)cc5[nH]4)s3)[nH]c2c1 ?
2 µg/mL

What about N=C(c1ccc2cc(-c3ccc(-c4cc5ccc(C(=N)N6CCC6)cc5[nH]4)cc3)[nH]c2c1)N1CCC1 ?
2 µg/mL

What about CN(C)C(=N)c1ccc2cc(-c3cnc(-c4cc5ccc(C(=N)N(C)C)cc5[nH]4)cn3)[nH]c2c1 ?
4 µg/mL
